Numbers sourced from patent US7629318B2.

experiment: Stability of compounds in rat blood plasma; type: in vitro ADME
Numbered stars: 1 amine (or outer) side, 2 acyl side, 3 side chain; on linkers, the order of the positions; unused ones are H or OH. Square brackets hold non-standard residues; d marks the D form. Peptide text beside a SMILES is read from it. * marks the point of attachment. ξ: configuration not given here. Gly(1-amidinopiperidin-4-yl) = N=C(N)N1CCC([C@H](N)C(=O)O)CC1; X1 = CC(C)c1oc([C@H](CO)N[*:1])nc1C(=O)[*:2]; Pro(3R-Ph) = O=C(O)[C@H]1NCC[C@@H]1c1ccccc1; Met(O) = CS(=O)CC[C@H](N)C(=O)O; N(Me)CH2CH2Ph = CN(CCc1ccccc1)*; Tic = O=C(O)[C@@H]1Cc2ccccc2CN1; Cha = N[C@@H](CC1CCCCC1)C(=O)O; NHPhenethyl = c1ccc(CCN*)cc1; NMe(benzyl) = CN(Cc1ccccc1)*; ξDisc = O=C(O)C1NCc2ccccc21; Nle = CCCC[C@H](N)C(=O)O; X2 = OCCOCCN(Cc1ccccc1)*; NHBn = c1ccc(CN*)cc1
property-label: Stability (Arbitrary units) Rat 6 h
State just the number; it will be interpreted in Arbitrary units.

Completed entries (count: 3):
molecule	test-result
CCCC[C@H](NC(=O)[C@@H]1Cc2ccccc2CN1C(=O)[C@@H](NC(=O)[C@H](CC1CCCCC1)NC(C)=O)C1CCN(C(=N)N)CC1)C(=O)N(C)Cc1ccccc1 [Compound P74, Ac-Cha-Gpg-Tic-Nle-N(Me)Bn] (Ac-[Cha][Gly(1-amidinopiperidin-4-yl)][Tic][Nle]-{NMe(benzyl)})	91
CSCC[C@H](NC(=O)C1c2ccccc2CN1C(=O)[C@@H](NC(=O)[C@H](CC1CCCCC1)NC(C)=O)C1CCN(C(=N)N)CC1)C(=O)N1CC[C@H](c2ccccc2)[C@H]1C(=O)N[C@@H](CO)c1nc(C(=O)N(C)C)c(C(C)C)o1 (stereo partly drawn) [Compound P41-1] (Ac-[Cha][Gly(1-amidinopiperidin-4-yl)][ξDisc]M[Pro(3R-Ph)][X1]-NMe2)	91
CCCC[C@H](NC(=O)[C@@H]1Cc2ccccc2CN1C(=O)[C@H](CCCNC(=N)N)NC(=O)[C@H](CC1CCCCC1)NC(C)=O)C(=O)N(C)CCc1ccccc1 [Compound P83, Ac-Cha-Arg-Tic-Nle-N(Me)CH2CH2Ph] (Ac-[Cha]R[Tic][Nle]-{N(Me)CH2CH2Ph})	69

Would you kindly share the measured Stability (Arbitrary units) Rat 6 h for CC(=O)N[C@@H](CC1CCCCC1)C(=O)N[C@H](C(=O)N1Cc2ccccc2C[C@H]1C(=O)N[C@@H](CC[S+](C)[O-])C(=O)N1CC[C@H](c2ccccc2)[C@H]1C(=O)N[C@@H](CO)c1nc(C(=O)N(C)C)c(C(C)C)o1)C1CCN(C(=N)N)CC1 (stereo partly drawn) [Compound P47] (Ac-[Cha][Gly(1-amidinopiperidin-4-yl)][Tic][Met(O)][Pro(3R-Ph)][X1]-NMe2) ? 116

And for CSCC[C@H](NC(=O)[C@@H]1Cc2ccccc2CN1C(=O)[C@@H](NC(=O)[C@H](CC1CCCCC1)NC(C)=O)C1CCN(C(=N)N)CC1)C(=O)N(CCOCCO)Cc1ccccc1 [Compound P102, Ac-Cha-Gpg-Tic-Met-N(Bn)CH2CH2OCH2CH2OH] (Ac-[Cha][Gly(1-amidinopiperidin-4-yl)][Tic]M-X2) ? 131

And for CSCC[C@H](NC(=O)[C@@H]1Cc2ccccc2CN1C(=O)[C@@H](NC(=O)[C@H](CC1CCCCC1)NC(C)=O)C1CCN(C(=N)N)CC1)C(N)=O [Compound P67, Ac-Cha-Gpg-Tic-Met-NH2] (Ac-[Cha][Gly(1-amidinopiperidin-4-yl)][Tic]M-NH2) ? 10

And for CCCC[C@H](NC(=O)[C@@H]1Cc2ccccc2CN1C(=O)[C@H](CCCNC(=N)N)NC(=O)[C@H](CC1CCCCC1)NC(C)=O)C(=O)N(CCOCCO)Cc1ccccc1 [Compound P98, Ac-Cha-Arg-Tic-Nle-N(Bn)CH2CH2OCH2CH2OH] (Ac-[Cha]R[Tic][Nle]-X2) ? 71

And for CSCC[C@H](NC(=O)C1c2ccccc2CN1C(=O)[C@H](CCCNC(=N)N)NC(=O)[C@H](CC1CCCCC1)NC(C)=O)C(=O)N1CC[C@H](c2ccccc2)[C@H]1C(=O)N[C@@H](CO)c1nc(C(=O)N(C)C)c(C(C)C)o1 (stereo partly drawn) [Compound P40-1] (Ac-[Cha]R[ξDisc]M[Pro(3R-Ph)][X1]-NMe2) ? 111

And for CCCC[C@H](NC(=O)[C@@H]1Cc2ccccc2CN1C(=O)[C@H](CCCNC(=N)N)NC(=O)[C@H](CC1CCCCC1)NC(C)=O)C(=O)NCCc1ccccc1 [Compound P82, Ac-Cha-Arg-Tic-Nle-N(H)CH2CH2Ph] (Ac-[Cha]R[Tic][Nle]-NHPhenethyl) ? 65

And for CCCC[C@H](NC(=O)[C@@H]1Cc2ccccc2CN1C(=O)[C@@H](NC(=O)[C@H](CC1CCCCC1)NC(C)=O)C1CCN(C(=N)N)CC1)C(=O)NCc1ccccc1 [Compound P68, Ac-Cha-Gpg-Tic-Nle-N(H)Bn] (Ac-[Cha][Gly(1-amidinopiperidin-4-yl)][Tic][Nle]-NHBn) ? 7

And for CCCC[C@H](NC(=O)[C@@H]1Cc2ccccc2CN1C(=O)[C@H](CCCNC(=N)N)NC(=O)[C@H](CC1CCCCC1)NC(C)=O)C(=O)N(C)Cc1ccccc1 [Compound P71, Ac-Cha-Arg-Tic-Nle-N(Me)Bn] (Ac-[Cha]R[Tic][Nle]-{NMe(benzyl)}) ? 89

And for CSCC[C@H](NC(=O)[C@@H]1Cc2ccccc2CN1C(=O)[C@H](CCCNC(=N)N)NC(=O)[C@H](CC1CCCCC1)NC(C)=O)C(=O)N(CCOCCO)Cc1ccccc1 [Compound P99, Ac-Cha-Arg-Tic-Met-N(Bn)CH2CH2OCH2CH2OH] (Ac-[Cha]R[Tic]M-X2) ? 80

And for CSCC[C@H](NC(=O)[C@@H]1Cc2ccccc2CN1C(=O)[C@@H](NC(=O)[C@H](CC1CCCCC1)NC(C)=O)C1CCN(C(=N)N)CC1)C(=O)N1CC[C@H](c2ccccc2)[C@H]1C(=O)N[C@@H](CO)c1nc(C(=O)N(C)C)c(C(C)C)o1 [Compound P60] (Ac-[Cha][Gly(1-amidinopiperidin-4-yl)][Tic]M[Pro(3R-Ph)][X1]-NMe2) ? 134

###

The entries below come with measured Stability (Arbitrary units) Human 6 h values attached.
assay: Stability of compounds in human blood plasma; format: in vitro ADME
Numbered stars: 1 amine (or outer) side, 2 acyl side, 3 side chain; on linkers, the order of the positions; unused ones are H or OH. Square brackets hold non-standard residues; d marks the D form. Peptide text beside a SMILES is read from it. * marks the point of attachment. ξ: configuration not given here. Gly(1-amidinopiperidin-4-yl) = N=C(N)N1CCC([C@H](N)C(=O)O)CC1; X1 = CC(C)c1oc([C@H](CO)N[*:1])nc1C(=O)[*:2]; Pro(3R-Ph) = O=C(O)[C@H]1NCC[C@@H]1c1ccccc1; Met(O) = CS(=O)CC[C@H](N)C(=O)O; Tic = O=C(O)[C@@H]1Cc2ccccc2CN1; Cha = N[C@@H](CC1CCCCC1)C(=O)O; NHPhenethyl = c1ccc(CCN*)cc1; ξDisc = O=C(O)C1NCc2ccccc21; X4 = OCCOCCN(CCc1ccccc1)*; Nle = CCCC[C@H](N)C(=O)O; X2 = OCCOCCN(Cc1ccccc1)*; X3 = OCCOCCN*
State just the number; it will be interpreted in Arbitrary units.

Completed entries (count: 4):
compound	Stability (Arbitrary units) Human 6 h
CCCC[C@H](NC(=O)[C@@H]1Cc2ccccc2CN1C(=O)[C@H](CCCNC(=N)N)NC(=O)[C@H](CC1CCCCC1)NC(C)=O)C(=O)NCCc1ccccc1 [Compound P82, Ac-Cha-Arg-Tic-Nle-N(H)CH2CH2Ph] (Ac-[Cha]R[Tic][Nle]-NHPhenethyl)	94
CC(=O)N[C@@H](CC1CCCCC1)C(=O)N[C@@H](CCCNC(=N)N)C(=O)N1Cc2ccccc2C[C@H]1C(=O)N[C@@H](CC[S+](C)[O-])C(=O)N1CC[C@H](c2ccccc2)[C@H]1C(=O)N[C@@H](CO)c1nc(C(=O)N(C)C)c(C(C)C)o1 (stereo partly drawn) [Compound P43] (Ac-[Cha]R[Tic][Met(O)][Pro(3R-Ph)][X1]-NMe2)	134
CCCC[C@H](NC(=O)[C@@H]1Cc2ccccc2CN1C(=O)[C@H](CCCNC(=N)N)NC(=O)[C@H](CC1CCCCC1)NC(C)=O)C(=O)N1CC[C@H](c2ccccc2)[C@H]1C(=O)N[C@@H](CO)c1nc(C(=O)N(C)C)c(C(C)C)o1 [Compound P51] (Ac-[Cha]R[Tic][Nle][Pro(3R-Ph)][X1]-NMe2)	119
CCCC[C@H](NC(=O)[C@@H]1Cc2ccccc2CN1C(=O)[C@H](CCCNC(=N)N)NC(=O)[C@H](CC1CCCCC1)NC(C)=O)C(=O)N(CCOCCO)CCc1ccccc1 [Compound P88] (Ac-[Cha]R[Tic][Nle]-X4)	133

Would you kindly share the measured Stability (Arbitrary units) Human 6 h for CCCC[C@H](NC(=O)[C@@H]1Cc2ccccc2CN1C(=O)[C@@H](NC(=O)[C@H](CC1CCCCC1)NC(C)=O)C1CCN(C(=N)N)CC1)C(=O)NCCOCCO [Compound P70, Ac-Cha-Gpg-Tic-Nle-N(H)CH2CH2OCH2CH2OH] (Ac-[Cha][Gly(1-amidinopiperidin-4-yl)][Tic][Nle]-X3) ? 116

And for CCCC[C@H](NC(=O)[C@@H]1Cc2ccccc2CN1C(=O)[C@H](CCCNC(=N)N)NC(=O)[C@H](CC1CCCCC1)NC(C)=O)C(=O)N(CCOCCO)Cc1ccccc1 [Compound P98, Ac-Cha-Arg-Tic-Nle-N(Bn)CH2CH2OCH2CH2OH] (Ac-[Cha]R[Tic][Nle]-X2) ? 116

And for CSCC[C@H](NC(=O)C1c2ccccc2CN1C(=O)[C@@H](NC(=O)[C@H](CC1CCCCC1)NC(C)=O)C1CCN(C(=N)N)CC1)C(N)=O (stereo partly drawn) [Compound P66-1, Ac-Cha-Gpg-Disc-Met-NH2] (Ac-[Cha][Gly(1-amidinopiperidin-4-yl)][ξDisc]M-NH2) ? 103
